test: chemical genetic growth profiling, strain panel (AID 1159580);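 further: tested at 20 µM; growth read once vehicle control cultures reached saturation at 30 °C; 1 = growth at the plate median or of vehicle wells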; settings: S. cerevisiae deletion strains, growth OD, locus YGL227W, strain vid30, stronger effect = lower value
The campaign covered roughly 5,500 compounds. About 2,000 (36%) were called active. About 18% were inconclusive and are not listed. The list shows a part of the results.
READOUT KIND: normalized growth
I only need the number, thanks.

CC[C@@H]1[C@@H](O)N2C3C[C@H]1C1C(O)[C@]4(C[C@@H]12)c1ccccc1N(C)[C@@H]34 (some centres undefined); 1.05
CC1(C)C2CC(=O)O[C@@]3(C)C4=CC(=O)O[C@@H](c5ccoc5)[C@]4(C)CCC3[C@@]2(C)C=C[C@H]1O (some centres undefined); 0.98
COc1ccccc1OCC(O)CN1CCN(CC(=O)Nc2c(C)cccc2C)CC1 (centres undefined); 1.02

Next molecule, please.
The recorded normalized growth for entry CCOC(=O)C1=C[C@]2(CC)CCCN3CCc4c(n1c1ccccc41)[C@@H]32 equals 1.03

----------
experiment: chemical genetic growth profiling, strain panel (AID 1159580); settings: S. cerevisiae deletion strains, growth OD, locus YMR205C, strain PFK2, stronger effect = lower value
The campaign covered roughly 5,500 compounds. About 2,000 (36%) were called active. Roughly 18% stayed inconclusive and do not appear here. Some of the results follow.
READOUT KIND: normalized growth
Number only, please.

C[C@@H]1CC2C3CCC4=CC(=O)C=C[C@]4(C)[C@@]3(F)[C@@H](O)C[C@]2(C)[C@@]1(O)C(=O)COP(=O)(O)O (some centres undefined); 0.981
CC[C@]12CCCN3CCc4c(n(c5ccccc45)C(=O)C1)[C@@H]32; 0.991
CC1=C(/C=C/C(C)=C/C=C/C(C)=C\C(=O)O)C(C)(C)CCC1; 0.971

Moving on to the next compound.
Record CC1(C)O[C@@H]2CC3C4CCC5=CC(=O)C=C[C@]5(C)C4[C@@H](O)C[C@]3(C)[C@]2(C(=O)CO)O1 (some centres undefined) , field normalized growth: 0.978

----------
Let's look at some compounds and their measured normalized growth.
assay: chemical genetic growth profiling, strain panel (AID 1159580); settings: S. cerevisiae deletion strains, growth OD, locus YNL153C, strain GIM3, stronger effect = lower value
Among all 5,500 compounds or so, about 2,000 (36%) were called active. About 18% were inconclusive and are not listed. The list shows a part of the results.
Enter a number only.

O=C(O)P(=O)(O)O; 0.968
S=c1[nH]c2ccccc2[nH]1; 1.01
CO[C@@H]1[C@@H](O[C@@H]2O[C@H](C)[C@@H](O[C@H]3C[C@@](C)(O)[C@H](O)[C@H](C)O3)[C@H](N(C)C)[C@H]2O)[C@@H](CC=O)C[C@@H](C)[C@@H](O[C@H]2CC[C@H](N(C)C)[C@@H](C)O2)/C=C/C=C/C[C@H](C)OC(=O)C[C@H]1O; 1.01
OC/C=C/c1ccc(O)c(O)c1; 0.999
COCC(=O)O[C@]1(CCN(C)CCCc2nc3ccccc3[nH]2)CCc2cc(F)ccc2[C@@H]1C(C)C; 0.941

Query C=CCN1CC[C@]23c4c5ccc(O)c4OC2C(=O)CC[C@@]3(O)[C@H]1C5 (some centres undefined) yields normalized growth of 1.02

Documented normalized growth of O=C1NC(c2c(F)cccc2Cl)Nc2ccccc21 (centres undefined) : 1.01

According to the records, this compound O=C(O)CNCP(=O)(O)O displays normalized growth of 1

For record O=C(/C=C/c1ccc(O)c(O)c1)O[C@@H]1C[C@](O)(C(=O)O)C[C@@H](O)[C@H]1O the listed normalized growth is 1.02

----------
test: chemical genetic growth profiling, strain panel (AID 1159580); details: S. cerevisiae deletion strains, growth OD, locus YNL128W, strain TEP1, stronger effect = lower value
In all, about 5,500 compounds went through this assay and about 2,000 (36%) were called active. About 18% were inconclusive and are not listed. Some of the results follow.
Note to self: use true (1) only for normalized growth readings below 1; a reading exactly at 1 still gets false (0).

CCn1cc(C(=O)O)c(=O)c2ccc(C)nc21; true (1)
N.N.N.N.N.N.N.N.N.N.N.N.N.N.O.O.[Ru+4].[Ru+5].[Ru+5]; true (1)
CO[C@@H]1C[C@@H](C[C@H]2CC[C@H](C)[C@H]([C@@H](C)C(=O)O)O2)O[C@]2(O[C@](C)([C@H]3CC[C@@](C)(C4O[C@@H](C5O[C@@](O)(CO)[C@H](C)C[C@@H]5C)C[C@@H]4C)O3)C[C@H]2C)[C@@H]1C (some centres undefined); false (0)
CC(=O)N[C@@H]1[C@@H](C(O)[C@H](O)CO)O[C@](O)(C(=O)O)C[C@@H]1O (some centres undefined); false (0)
CCN1C(=O)C=CC1=O; false (0)

Input: Is normalized growth of CCCCC(CC)CN=C(N)NC(N)=NCCCCCCN=C(N)NC(N)=NCC(CC)CCCC (centres undefined) strictly below 1?
Output: true (1)

Input: normalized growth strictly < 1 for this molecule? C[C@@]12C(=O)OC(=O)[C@]1(C)C1CCC2O1
Output: true (1)

----------
assay: chemical genetic growth profiling, strain panel (AID 1159580);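 further: tested at 20 µM; growth read once vehicle control cultures reached saturation at 30 °C; 1 = growth at the plate median or of vehicle wells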; details: S. cerevisiae deletion strains, growth OD, locus YLR039C, strain RIC1
The whole screen tested about 5,500 compounds, of which about 2,000 (36%) were called active. Another 18% or so got no clear call; they are omitted. No stated cut-off is given here; in the data, active means normalized growth mostly below about 0.91 (no sharp cut-off); inconclusive means no clear call, values can overlap the other calls; inactive means mostly above about 0.92. This is one part of the list.
Your response should consist of one outcome taken from Y for active, N for inactive

Worked examples follow.
NC(=O)CCSCCC(N)=O; N
COc1cc2c3cc1Oc1cc(ccc1O)OC1c4c(cc(OC)c(O)c4Oc4ccc(cc4)CC3N(C)CC2)CCN1C (stereo unspecified); N
C=CCc1cc(OC)c2c(c1OC)OCO2; N
COc1ccccc1N1CCN(Cc2ccc(F)cc2)CC1; N
COc1cc(C(=O)O)cc(OC)c1O; N
CCOC(=O)c1c(N=Cc2cc(Br)c(Br)cc2O)sc2c1CCCC2; Y

Input: Check the results log: what was the call for COc1ccc(CN(Cc2ccc(OC)cc2)C(=O)c2cccs2)cc1 ?
Output: N

Input: // param item: Fc1cccc(Cl)c1Cn1nnc(N2CCCCC2)n1 ; yields the recorded call
Output: N

Input: What was the test verdict on CCCCC(CC)CN=C(N)NC(N)=NCCCCCCN=C(N)NC(N)=NCC(CC)CCCC (stereo unspecified) ?
Output: Y

Input: Could you kindly confirm the outcome this assay logged for OCC(S)CS (stereo unspecified) ?
Output: N

Input: Just curious, what result did O=C(O)c1cc(=O)c(O)c2c(O)c(O)ccc2c1 get here?
Output: N

----------
experiment: chemical genetic growth profiling, strain panel (AID 1159580);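 further: tested at 20 µM; growth read once vehicle control cultures reached saturation at 30 °C; 1 = growth at the plate median or of vehicle wells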; conditions: S. cerevisiae deletion strains, growth OD, locus YDR477W, strain SNF1, stronger effect = lower value
Out of some 5,500 compounds screened, about 2,000 (36%) were called active. Inconclusive results (about 18%) are left out. Some of the results follow.
Below: a set of entries, each annotated with reported normalized growth.
Answer field: number only, no words.

Example results:
CCC1CCC(C)N(C(=S)Nc2ccc(Br)cc2C)C1 (stereo not given); 0.955
Clc1ccc(-c2noc(CSC3=NCCN3)n2)cc1; 0.938
CCOC(=O)NC(=S)NC12CC3CC(CC(C3)C1)C2; 0.894

Just so you know, measured normalized growth for CCCCCCCC1CCC/C1=N/OC(=O)c1cccs1 (stereo not given) came out at 0.957

// field: normalized growth; key: COc1cc(C(=O)Oc2c(Cl)cc(Cl)cc2C=Nc2cccc(C(F)(F)F)c2)cc(OC)c1OC ; value = 0.589

Note to self: normalized growth recorded for CSc1c(C#N)c(-c2ccc(Cl)cc2)nn1C(=O)c1ccccc1Cl was 0.938

For this molecule ( N/C(=N/OC(=O)c1ccc(Cl)cc1)c1ccc(F)cc1F ), measured normalized growth is 0.491

response.value for COc1cc(Cl)c(NS(=O)(=O)c2cc(Br)c(Br)s2)c(OC)c1 (field: normalized growth) = 0.904

Memo: CC12CC[C@@H](O)CC1=CC[C@@H]1C2CCC2(C)C(=O)CC[C@@H]12 (stereo not given in full) , reported normalized growth: 0.909

The measured normalized growth associated with O=C(CO/N=C\c1ccc(Cl)cc1Cl)NNC(=S)Nc1cc(Cl)ccc1Cl reads 0.983

----------
test: chemical genetic growth profiling, strain panel (AID 1159580);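 further: tested at 20 µM; growth read once vehicle control cultures reached saturation at 30 °C; 1 = growth at the plate median or of vehicle wells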; conditions: S. cerevisiae deletion strains, growth OD, locus YJL187C, strain SWE1 (second series), stronger effect = lower value
About 2,000 (36%) of roughly 5,500 compounds were called active. Not shown: some 18% with an inconclusive outcome. The list shows a part of the results.
READOUT KIND: normalized growth
A bare number is all that is needed in reply.

Previously resolved entries follow.
Cc1ccc(C(C)C)cc2c(C)ccc1-2; 0.995
NCc1ccc(S(N)(=O)=O)cc1; 0.981
COc1cc2c3cc1Oc1cc(ccc1O)OC1c4c(cc(OC)c(O)c4Oc4ccc(cc4)CC3N(C)CC2)CCN1C (stereo not drawn); 0.999
C[C@H](COc1ccccc1)N[C@H](C)[C@H](O)c1ccc(O)cc1; 0.985
COS(C)(=O)=O; 1

Record CC(=O)OCC(=O)[C@@]12OC(C)(C)O[C@@H]1CC1C3C[C@H](F)C4=CC(=O)C=C[C@]4(C)[C@@]3(F)[C@@H](O)C[C@@]12C (stereo partly drawn) . Reported normalized growth: 1.01

For CCOC(N)=O the compound record lists normalized growth as 1.02

Sample CN1CCc2cccc3c2C1Cc1ccc(O)c(O)c1-3 (stereo not drawn) ; normalized growth observed: 1.01
